Source: PubChem BioAssay

# ASSAYED_SYSTEM: Dickkopf-related protein 1 (Homo sapiens) (UniProt O94907)
# Sequence (O94907 whole entry, looked up): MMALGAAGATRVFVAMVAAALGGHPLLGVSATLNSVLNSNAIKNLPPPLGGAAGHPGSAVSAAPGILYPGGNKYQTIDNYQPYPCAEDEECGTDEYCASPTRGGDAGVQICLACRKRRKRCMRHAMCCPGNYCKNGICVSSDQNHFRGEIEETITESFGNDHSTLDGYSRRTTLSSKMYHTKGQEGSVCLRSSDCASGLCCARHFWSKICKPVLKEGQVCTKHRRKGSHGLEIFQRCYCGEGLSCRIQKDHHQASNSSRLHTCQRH
# PROTOCOL_NOTES: small molecules binding DKK1 protein – biochemical, small-molecule microarray, 635 nm fluorescence scan, primary screen (AID 1106);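 also: score merges emission near 667 nm with signal to noise over three replicate slides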
# CONDITION_DETAILS: higher = more signal
Criterion: composite z-score meeting or surpassing -0.04. Met: 1.0. Not met: 0.0.

MOLECULE	CATEGORY_LABEL
O=C1C2C=CC(C(O)C3CCCCC3)N(n3cnnc3)C2C(=O)N1Cc1ccccc1 (stereo not drawn)	0.0
C=C(CCCC)/C(=C/C[C@H](OC(=O)c1ccncc1)c1cccc(OCCO)c1)c1cnc2ccccc2c1	1.0
O=C1N(Cc2ccccc2)c2ccccc2C[C@@]12COC(c1ccc(OCCCO)cc1)=N2	0.0

Input line: Does composite z-score meet or surpass -0.04 for COC(=O)[C@@]1(Cc2ccc(F)cc2)[C@H]2c3cc(C(=O)N4CCCC4)n(Cc4cc(F)cc5c4OCOC5)c3C[C@H]2CN1C(=O)c1ccccc1 ?
Output line: 0.0

---

# System: Chordin-like protein 2 (CHRDL2)
# PROTOCOL_NOTES: compounds binding chordin-like 2 – biochemical, small-molecule microarray, 635 nm fluorescence, primary screen (AID 1126);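 also: printed compound slides probed with Chrdl2 protein at 4 µg/mL for 1 h at 4 C; score merges 667 nm emission intensity with signal to noise over three replicate slides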
# CONDITION_DETAILS: fluorescence 635 nm, higher = more signal
Record form. Attribute: composite z-score. Fill in for each entry.
Numbers only.

Worked cases, answers included:
MOLECULE	ENDPOINT_VALUE
COC(=O)[C@@]1(Cc2ccccc2)[C@H]2c3cc(C(=O)N(C)C)n(CCSC(=N)N)c3C[C@H]2CN1C(=O)c1ccccc1	-0.721
O=C(NCc1ccccc1)[C@@H]1c2ccccc2C(=O)N(Cc2ccc(OC(F)(F)F)cc2)[C@H]1c1ccc(CO)cc1	-0.431
CC(=O)NCCCC[C@@H]1NC(=O)[C@H]2C[C@@H](C(=O)NCCCCCCNC(=O)CS)[C@@H](c3cccc(OCCO)c3)N2C1=O	0.487
O=C(NC1CC1)[C@@H]1c2ccccc2C(=O)N(Cc2ccc(OC(F)(F)F)cc2)[C@H]1c1ccc(CO)cc1	-0.584
CC(C)=CCCC(C)=CC(O)C1C=CC2C(=O)NC(=O)C2N1Nc1ccc(Cl)cc1Cl (centres undefined)	0.307
CO[C@H]1O[C@H](CO)[C@@H](OC(=O)Nc2ccccc2)[C@H](OC(=O)Nc2ccccc2)[C@H]1OC(=O)Nc1ccccc1	-0.0958
COC(=O)[C@@]1(Cc2ccc(F)cc2)[C@H]2c3cc(C(=O)N(C)C)n(CCc4ccc(O)c(O)c4)c3C[C@H]2CN1C(=O)c1ccccc1	-0.938
CN(C)CCCC[C@@H]1NC(=O)[C@@H]2C[C@H](C(=O)NCCCCCN)[C@H](c3cccc(OCCO)c3)N2C1=O	0.495
O=C1[C@H]2C=C(I)[C@H](C[C@@H]2c2ccccc2)[C@@]12CO2	0.664
COCCCNC(=O)[C@@]1(CCS(=O)(=O)c2ccccc2)COC(c2ccc(OCCCO)cc2)=N1	-0.804

Below is a list of molecules. For each, state its recorded composite z-score.
1. COC(=O)[C@@]1(Cc2ccc(OC)cc2)[C@H]2c3cc(C(=O)N4CCCC4)n(Cc4ccc(Cl)c(C(F)(F)F)c4)c3C[C@H]2CN1C(=O)c1ccccc1
2. O=C1C[C@@](C(=O)NC2CC2)(c2ccc([N+](=O)[O-])cc2)[C@@H](c2ccc(CO)cc2)N1C1CCCCC1
3. C=CCN1C(=O)[C@@]2(O[C@@H](CCn3cc([C@H](O)c4ccccc4)nn3)[C@H]([Si](C)(C)c3ccc(OC)cc3)[C@H]2C)c2cc(N3C(=O)c4cccc5cccc3c45)ccc21
4. C=CCNC(=O)[C@H]1[C@@H]2C(=O)O[C@@H](c3ccccc3)[C@@H](c3ccccc3)N2[C@@H](c2ccc(OCCO)cc2)[C@]12C(=O)Nc1ccccc12

Output line:
1: -0.754; 2: 0.43; 3: -1.02; 4: -0.832

---

# ASSAYED_SYSTEM: Dihydroorotate dehydrogenase (quinone), mitochondrial (Plasmodium falciparum (isolate 3D7)) (UniProt Q08210)
# Sequence (Q08210 whole entry, looked up): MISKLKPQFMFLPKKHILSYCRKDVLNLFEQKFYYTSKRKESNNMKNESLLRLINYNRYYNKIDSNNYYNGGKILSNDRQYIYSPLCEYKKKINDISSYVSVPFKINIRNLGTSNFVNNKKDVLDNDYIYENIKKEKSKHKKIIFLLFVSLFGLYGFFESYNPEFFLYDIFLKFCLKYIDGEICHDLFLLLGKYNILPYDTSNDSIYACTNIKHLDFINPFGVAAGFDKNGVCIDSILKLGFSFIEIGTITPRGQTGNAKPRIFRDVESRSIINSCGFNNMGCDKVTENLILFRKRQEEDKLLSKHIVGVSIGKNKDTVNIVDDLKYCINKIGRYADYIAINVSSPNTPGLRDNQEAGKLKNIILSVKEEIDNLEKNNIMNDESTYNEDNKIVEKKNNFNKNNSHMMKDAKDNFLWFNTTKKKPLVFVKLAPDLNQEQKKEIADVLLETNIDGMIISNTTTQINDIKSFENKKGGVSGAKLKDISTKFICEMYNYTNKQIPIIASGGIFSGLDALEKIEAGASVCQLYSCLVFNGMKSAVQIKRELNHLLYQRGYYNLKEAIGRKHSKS
# PROTOCOL_NOTES: inhibition of P. falciparum DHODH – biochemical, C-terminal His tag, absorbance 600 nm, primary screen (AID 1175);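 also: recombinant parasite enzyme with a five histidine tag at its C terminus; test concentration not given here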
# CONDITION_DETAILS: PfDHODH enzyme, DCIP absorbance 600 nm; higher = more signal, called active from +8 up or from −8 down
Assign true whenever composite z-score does not fall below -0.1; assign false whenever it does.

Solved entries:
> print(dat)
                                   compound  category.label
1  CCCCCCc1nc(-c2ccc(-c3ccc(Cl)c(Cl)c3)o2)cc2c1[Si](C(C)C)(C(C)C)OC2           false
2  COc1cc(CO)cc(I)c1O[C@H]1C=C(C(=O)NCCO)C[C@@H]2O[C@H]12           false
3  CCCNC(=O)[C@@]1(Sc2ccc(C)cc2)CC(=O)N(Cc2ccccc2Cl)[C@@H]1c1ccc(CO)cc1I           false
4  CO[C@H]1O[C@H](CO)[C@@H](OC(=O)Nc2ccc3c(c2)OCO3)[C@H](OC(=O)Nc2ccccc2-c2ccccc2)[C@H]1OC(=O)Nc1ccccc1-c1ccccc1            true

Input line: Evaluate O=C1C2C=CC(C(O)c3c(F)cccc3Cl)N(Nc3ccc([N+](=O)[O-])cc3)C2C(=O)N1c1ccccc1 (stereo not drawn) : composite z-score at minimum -0.1?
Output line: true

Input line: Record C=CCN1Cc2ccccc2[C@H]2OC(c3ccc(OCCCO)cc3)=N[C@@]2(CCS(=O)(=O)c2ccccc2)C1=O ; criterion: composite z-score no lower than -0.1. Met?
Output line: true

Input line: composite z-score >= -0.1 for COC(=O)[C@@]1(Cc2ccccc2)[C@H]2c3cc(C(=O)N(C)C)n(Cc4ccc(C(F)(F)F)nc4)c3C[C@H]2CN1C(=O)c1ccccc1 ?
Output line: false

Input line: Does the compound COC(=O)[C@@]1(Cc2ccccc2)[C@H]2c3cc(C(=O)N(C)C)n(CCO)c3C[C@H]2CN1C(=O)c1ccccc1 have recorded composite z-score that is -0.1 or more?
Output line: true

---

Would you mind telling me the reported composite z-score of each entry?
# Tested on: Lefty1
# PROTOCOL_NOTES: Lefty1 protein binding to printed compounds – biochemical, small-molecule microarray, 635/667 nm fluorescence, primary screen (AID 1139)
# CONDITION_DETAILS: fluorescence 635/667, higher = more signal
Answers are plain numbers.

MOLECULE	ENDPOINT_VALUE
CC(C)C[C@@H]1NC(=O)[C@@]23C(=O)N[C@@H](Cc4ccccc4)C2[C@H](C)[C@@]2(C)O[C@H]2C3/C=C/C/C=C\CNC(=O)CNC1=O (some centres not stated)	0.938
O=C1[C@H]2C=C(I)[C@H](C[C@@H]2OCCCCCCO)[C@@]12CO2	1.07
COC(=O)C1(Cc2ccccc2)C=C2C(=C(C)C(=O)C2C)CN1 (configuration not stated)	-0.104

For every item below, please supply its composite z-score.
1. COCC(=C=CC[C@H](O)c1ccccc1OCCO)C[C@H](O)COCc1ccccc1
2. C=C(CCCC)/C(=C/C[C@H](OC(=O)c1ccncc1)c1cccc(OCCO)c1)c1cnc2ccccc2c1
3. C=C1C(=O)C=C2CN(C(=O)c3ccccc3)[C@@](Cc3ccc(OC)cc3)(C(=O)OC)[C@@H]12
4. CCCN1C(=O)[C@@]2(c3ccc([N+](=O)[O-])cc3)CC(=O)N(CC34CC5CC(CC(C5)C3)C4)[C@@H]2c2ccc(CO)cc21
5. CN(C)C(=O)[C@]1(Cc2ccccc2)N=C(c2ccc(OCCCO)cc2)O[C@@H]1c1ccccc1CN=[N+]=[N-]
6. CC1CC/C=C\[C@H]2OC34C=CCN(Cc5ccccc5)C(=O)[C@H]3N(CCCCCCO)C(=O)[C@@H]4C2C(=O)O1 (some centres not stated)

Output line:
1. 0.632
2. 1.07
3. 0.381
4. -0.0689
5. 0.463
6. -0.869

---

# PROTOCOL_NOTES: basal CRE-LacZ reporter activity in PC12 – cell-based, unstimulated, primary screen (AID 1145)
# CONDITION_DETAILS: no forskolin, luminescence, 4.5 h, higher = more signal, called active from +8 up or from −8 down
Kindly supply the reported z-score values for the records listed here.
One number for each entry.

Example compounds with recorded z-score:
COMPOUND	z-score
C=CCC(OC(C)=O)[C@@H]1[C@@H](N(Cc2cc3ccccc3o2)C(=O)c2cccc3ccccc23)c2cc(OCCCO)ccc2N1C(=O)c1ccc2ccccc2n1 (some centres undefined)	2.6
CC(C)(C)N1CC=CC23O[C@@H]4C=CCCOC(=O)C4[C@H]2C(=O)N(CCCCCCO)[C@@H]3C1=O (some centres undefined)	-0.0899
[N-]=[N+]=Nc1ccccc1C[C@@]1(C(=O)NCc2ccccc2)N=C(c2ccc(OCCCO)cc2)O[C@@H]1c1ccccc1N=[N+]=[N-]	0.596

Continue with the compound presented below.
Memo: COCCn1c(C(=O)N(C)C)cc2c1C[C@H]1CN(C(=O)c3ccccc3)[C@@](Cc3ccc(OC)cc3)(C(=O)OC)[C@@H]21 , reported z-score: 0.776
